Molecular target: Aquaporin-1 (Homo sapiens)
Sequence (P29972 whole entry): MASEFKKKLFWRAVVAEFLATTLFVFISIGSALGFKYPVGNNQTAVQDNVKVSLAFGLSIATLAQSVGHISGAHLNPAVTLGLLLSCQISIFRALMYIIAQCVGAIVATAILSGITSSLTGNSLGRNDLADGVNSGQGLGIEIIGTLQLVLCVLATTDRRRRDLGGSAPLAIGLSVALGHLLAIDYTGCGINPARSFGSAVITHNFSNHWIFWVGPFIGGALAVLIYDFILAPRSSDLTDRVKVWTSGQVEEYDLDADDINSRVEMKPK
Assay: Inhibition of AQP1 water channel in human erythrocyte by stopped-flow spectrometry
Format: cell-based
metric: EC50 (µM)

(I) CN(C)CCOC1(Cc2ccc(F)cc2)CCC(C(C)(C)C)CC1 (configuration not stated)
(II) CCN1CCC(O)(/C=C/c2ccc(C)cc2)C(C(=O)/C=C/c2ccc(C)cc2)C1 (configuration not stated)
[ask] Kindly compare I with II and tell me which has the lower EC50 figure. Your answer should be the label attached to the chosen record.
[reply] II
(II: 20 µM, I: 48 µM)

---

Target: Urea transporter 1 (Mus musculus)
Sequence (Q8VHL0 whole entry): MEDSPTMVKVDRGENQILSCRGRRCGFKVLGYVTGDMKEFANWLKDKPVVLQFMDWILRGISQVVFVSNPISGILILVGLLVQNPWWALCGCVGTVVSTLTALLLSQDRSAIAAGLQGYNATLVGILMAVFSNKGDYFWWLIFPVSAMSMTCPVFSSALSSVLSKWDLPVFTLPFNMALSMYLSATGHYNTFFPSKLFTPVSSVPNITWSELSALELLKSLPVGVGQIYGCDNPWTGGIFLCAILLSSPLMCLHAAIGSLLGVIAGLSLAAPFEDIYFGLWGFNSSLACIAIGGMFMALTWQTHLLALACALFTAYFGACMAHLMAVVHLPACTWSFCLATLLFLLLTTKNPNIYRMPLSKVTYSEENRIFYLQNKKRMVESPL
Assay: Inhibition of UT-B in C57BL/6J mouse erythrocyte incubated for 6 min by erythrocyte osmotic lysis based high-throughput screening assay
Format: cell-based
pIC50: −log10 of the molar value.
metric: pIC50

(1) CCOC(=O)c1cc2c(N)c(C(=O)OC)sc2cc1C
(2) Cc1nc2ccc(NC(=O)c3ccco3)cc2c(=O)n1Cc1ccc(Cl)cc1
[ask] Among 1 and 2 , whose measured pIC50 is the smaller figure? Answer = label.
[reply] 2
